Molecular target: GRB14 (Homo sapiens, UniProt Q14449)
Construct: the DNA-tagged SH2 domain concentrations used in this study were <0.1 nM; made in house; host or cells: HEK293 (transient transfection; unpurified extract)
Sequence (Q14449 439-535 limits assumed): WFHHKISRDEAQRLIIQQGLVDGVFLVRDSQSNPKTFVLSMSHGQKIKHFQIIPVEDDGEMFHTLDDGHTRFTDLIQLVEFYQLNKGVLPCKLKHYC
Assay: biochemical
Type: binding
Settings: dose-response; read-out: KD
measurement.kind: Kd (µM)
Report the figure in µM without appending any unit label.

# query: Kd of entry C/C(=C\C(=O)N[C@H](C(=O)N1CCC[C@H]1C(=O)N(c1ccccc1)c1ccc(I)cc1)C(C)(C)C)c1ccc(OP(=O)(O)O)cc1
3.5

---

Molecular target: RASA1(SH2dom.N-term.) (Homo sapiens)
Construct: SH2dom.N-term. denotes SH2 domain closest to N-terminus of protein; made in house; host or cells: HEK293 (transient transfection), unpurified extract
Sequence (P20936 181-272 limits assumed): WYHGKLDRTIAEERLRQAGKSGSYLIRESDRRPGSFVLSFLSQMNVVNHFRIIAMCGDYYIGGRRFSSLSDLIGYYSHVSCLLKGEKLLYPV
Experiment: biochemical
Format: binding
Conditions: primary screen, 10 μM; read-out: percent of DMSO vehicle control
measurement.kind: remaining activity at 10 µM (%)
The figure you give is taken to be in %; do not add the unit.

>>> print(df.to_string())
                                   compound             measurement_kind  unit_descriptor  number
0  C/C(=C\C(=O)N[C@H](C(=O)N1CCC[C@H]1C(=O)N(c1ccccc1)c1ccc(I)cc1)C(C)(C)C)c1ccc(OP(=O)(O)O)cc1 [STAT6-IN-1]  remaining activity at 10 µM                %    50.2
1  O=C(CCl)Nc1cccc(CNC(=O)[C@H](Cc2ccc(OP(=O)(O)O)cc2)NC(=O)Cc2ccc(F)cc2)c1 [MN551]  remaining activity at 10 µM                %    94.2
2  O=C(COc1ccc2cc(C(=O)Nc3ccccc3)ccc2c1)NCc1ccc(OP(=O)(O)O)c(OP(=O)(O)O)c1 [Stafib-1]  remaining activity at 10 µM                %    71.3

Then this compound:
Which remaining activity at 10 µM is reported with RASA1(SH2dom.N-term.) (Homo sapiens) for this entry: CC(C)(C)[C@H](NC(=O)/C=C/c1ccc(OP(=O)(O)O)cc1)C(=O)N1CCC[C@H]1C(=O)N(c1ccccc1)c1ccc(I)cc1 [STAT6-IN-3] ?
81.7
